Data origin, for the record: patent US20230348426A1

Target: human FPR1 (Homo sapiens (Human), UniProt P21462)
Sequence (P21462 whole entry): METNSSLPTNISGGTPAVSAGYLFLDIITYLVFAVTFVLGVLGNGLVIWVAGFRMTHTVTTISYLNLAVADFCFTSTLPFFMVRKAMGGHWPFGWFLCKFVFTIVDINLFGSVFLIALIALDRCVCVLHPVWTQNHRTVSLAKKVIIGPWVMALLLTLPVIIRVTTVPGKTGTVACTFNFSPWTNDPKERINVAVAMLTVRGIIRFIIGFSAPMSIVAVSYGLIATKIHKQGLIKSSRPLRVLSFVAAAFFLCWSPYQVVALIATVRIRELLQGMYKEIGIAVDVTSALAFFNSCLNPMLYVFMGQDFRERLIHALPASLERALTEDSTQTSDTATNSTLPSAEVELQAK
Assay: FPR1 cyclic adenosine monophosphate (cAMP) assay
Conditions: CHO cells overexpressing human FPR1; forskolin 10 µM; inhibition of cAMP production; read-out: hFPR1 cAMP EC50
pEC50: −log10 of the molar value.
pEC50 reference
EXPERIMENTAL READOUT: pEC50

INSERT INTO assay_data (compound, target_under_test, experimental_readout, sign, number) VALUES
  ('COc1cc(F)c([C@@H]2CN(c3nc(N4C[C@H]5C[C@@H]4CN5C)ccc3F)C(=O)[C@H]2NC(=O)c2ccc(OC(F)F)cc2)c(F)c1 [Example 50]', 'human FPR1 (Homo sapiens (Human), UniProt P21462)', 'pEC50', '=', 5.77),
  ('CCn1cccc(N2C(=O)[C@@H](NC(=O)c3ccc(OC(F)(F)F)cc3)[C@H](c3c(F)cc(OC)cc3F)[C@H]2C)c1=O [Example 242]', 'human FPR1 (Homo sapiens (Human), UniProt P21462)', 'pEC50', '=', 6.96),
  ('COc1cc(F)c([C@@H]2CN(c3cccn(C)c3=O)C(=O)[C@H]2NC(=O)c2ccc(OC(F)F)cc2)c(F)c1 [Example 34]', 'human FPR1 (Homo sapiens (Human), UniProt P21462)', 'pEC50', '=', 6.52),
  ('COc1cc(F)c([C@@H]2CN(c3cccn(CC(OC)C(F)(F)F)c3=O)C(=O)[C@H]2NC(=O)c2ccc(OC(F)F)cc2)c(F)c1 (stereo partly drawn) [Example 161]', 'human FPR1 (Homo sapiens (Human), UniProt P21462)', 'pEC50', '=', 8.47),
  ('COc1cc(C2CCN(C)CC2)nc(N2C[C@@H](c3c(F)cc(OC)cc3F)[C@H](NC(=O)c3ccc(OC(F)F)cc3)C2=O)c1 [Example 498]', 'human FPR1 (Homo sapiens (Human), UniProt P21462)', 'pEC50', '<', 5.30),
  ('COc1cc(F)c([C@@H]2CN(c3cncn(CC(C)O)c3=O)C(=O)[C@H]2NC(=O)c2ccc(OC(F)F)cc2)c(F)c1 (stereo partly drawn) [Example 467]', 'human FPR1 (Homo sapiens (Human), UniProt P21462)', 'pEC50', '=', 5.82);
